Please respond with reported Rf for every item in the list.
test: Retardation factor, Rf of the compound in […] solvent; format: physicochemical
Numbers only.

// for each compound below, give its Rf
1. CCO[P@@]1(=O)OC[C@H]2O[C@@H](n3cnc4c(N)ncnc43)[C@H](O)[C@@H]2O1
2. CCO[P@]1(=O)OC[C@H]2O[C@@H](n3cnc4c(N)ncnc43)[C@H](O)[C@@H]2O1
3. Nc1ncnc2c1ncn2[C@@H]1O[C@@H]2CO[P@@](=O)(OCc3ccccc3[N+](=O)[O-])O[C@H]2[C@H]1O

RESULT:
0.4
0.35
0.39

// for each compound below, give its Rf
1. Cc1ccc(CO[P@@]2(=O)OC[C@H]3O[C@@H](n4cnc5c(N)ncnc54)[C@H](O)[C@@H]3O2)cc1
2. COP1(=O)OC[C@H]2O[C@@H](n3cnc4c(N)ncnc43)[C@H](O)[C@@H]2O1 (stereo not given in full)
3. Nc1ncnc2c1ncn2[C@@H]1O[C@@H]2CO[P@@](=O)(OCc3ccc([N+](=O)[O-])cc3)O[C@H]2[C@H]1O
4. Nc1ncnc2c1ncn2[C@@H]1O[C@@H]2CO[P@](=O)(OCc3ccc([N+](=O)[O-])cc3)O[C@H]2[C@H]1O
5. Nc1ncnc2c1ncn2[C@@H]1O[C@@H]2CO[P@@](=O)(OCc3ccccc3)O[C@H]2[C@H]1O
6. Nc1ncnc2c1ncn2[C@@H]1O[C@@H]2CO[P@](=O)(OCc3ccccc3[N+](=O)[O-])O[C@H]2[C@H]1O
7. Nc1ncnc2c1ncn2[C@@H]1O[C@@H]2COP(=O)(OCc3ccccc3)O[C@H]2[C@H]1O (single isomer, unassigned)

RESULT:
0.45
0.33
0.37
0.43
0.35
0.44
0.46
